- condition.details: [M+Na]+; instrument: TW; calibrated with polyalanine and drug standards
Classification field: y = collision cross section (N2) at or over 200 Å²; n = collision cross section (N2) under 200 Å².

Consider the following illustrative entries.
Request: Say whether CC(=O)Oc1cc2c(c(C)c1OC(C)=O)CC=C1[C@@]2(C)CC[C@@]2(C)C3C[C@](C)(C(=O)O)CC[C@]3(C)CC[C@]12C (some centres undefined) [DIHYDROCELASTRYL DIACETATE] shows collision cross section (N2) of 200 Å² or more.
Response: y

Request: Let us now turn to `CC(=O)N[C@@H]1[C@@H](O)[C@H](O)[C@@H](CO)O[C@H]1O`
Response: n

Request: Let us now turn to `CC(=O)N1CCC[C@H]1C(=O)O`
Response: n

Request: Let us now turn to `C[C@@H]1O[C@@H](O[C@H]2[C@H](Oc3cc(O)c4c(c3)O[C@H](c3ccc(O)cc3)CC4=O)O[C@H](CO)[C@@H](O)[C@@H]2O)[C@H](O)[C@H](O)[C@H]1O`
Response: y

Request: Let us now turn to `O=C1[C@H](CC[C@H](O)c2ccc(F)cc2)[C@@H](c2ccc(O)cc2)N1c1ccc(F)cc1`
Response: y

Request: Let us now turn to `C=C[C@@]1(C)CC(=O)[C@]2(O)[C@@]3(C)[C@@H](O)CCC(C)(C)[C@@H]3[C@H](O)[C@H](OC(C)=O)[C@@]2(C)O1`
Response: n

Request: Let us now turn to C=CCS(=O)C[C@H](N)C(=O)O (some centres undefined)
Response: n

Request: Let us now turn to `O=Cc1ccccc1O[C@@H]1O[C@H](CO)[C@@H](O)[C@H](O)[C@H]1O`
Response: n

Continuing:
Request: Say whether CCOC(=O)CC(SP(=S)(OC)OC)C(=O)OCC (centres undefined) shows collision cross section (N2) of 200 Å² or more.
Response: n

Request: Let us now turn to COC(=O)[C@@H]1OC(=O)C2OC23[C@@]1(C)CCC1[C@@]2(C)CCC(=O)C(C)(C)C2C[C@@H](OC(C)=O)[C@]13C (some centres undefined) [DIHYDROGEDUNIC ACID, METHYL ESTER]
Response: y

Request: Let us now turn to `C[C@H]1[C@H](C)CC[C@]2(C(=O)O)CC[C@]3(C)C(=CC[C@@H]4[C@@]5(C)C[C@@H](O)[C@H](O)[C@@](C)(CO)[C@@H]5[C@H](O)C[C@]43C)[C@H]12`
Response: y

* * *

Here, each record is paired with measured collision cross section (N2) data.
- condition.details: [M+NH4]+; instrument: DT; single field, calibrated with Agilent tune mix (Agilent)
Answer with a number only, understood to be in Å².

Example molecules with recorded collision cross section (N2):
Request: collision cross section (N2) lookup needed for CC/C=C\C/C=C\C/C=C\C/C=C\C/C=C\C/C=C\CCC(=O)OC[C@@H](COC(=O)CCCCCCC/C=C\C/C=C\C/C=C\CC)OC(=O)CCCCCCCC/C=C\C/C=C\C/C=C\CCCCC [TG(62:12)] , thanks.
Response: 337.5

Request: Let us now turn to CCCCC/C=C\C/C=C\CCCCCCCCCCCC(=O)O[C@H](COC(=O)CCCCCCCCCCC)COP(=O)(O)OC[C@@H](O)CO [PG(34:2)]
Response: 284.9

Request: Let us now turn to CCCCC/C=C\C/C=C\CCCCCCCCCCCC(=O)OC[C@@H](COC(=O)CCCCCCCCCCCC)OC(=O)CCCCCCCCC/C=C\CCCCCCCCCC [TG(57:3)]
Response: 332.9

Continuing:
Request: collision cross section (N2) lookup needed for CCCCCCCCCC/C=C\CCCCCCCCCC(=O)O[C@H](COC(=O)CCCCCCCCCCCCC)COP(=O)(O)O[C@H]1C(O)C(O)C(O)[C@@H](O)C1O (stereo partly drawn) [PI(36:1)] , thanks.
Response: 302.2

Request: Let us now turn to CCCCC/C=C\C/C=C\C/C=C\C/C=C\CCCCCC(=O)OC[C@@H](COC(=O)CCCCCCCCCCCCCCC)OC(=O)CCCCCCC/C=C\CCCCCCC [TG(55:5)]
Response: 324.6

Request: Let us now turn to CCCCC/C=C\C/C=C\C/C=C\CCCCCCCCC(=O)OC[C@@H](COC(=O)CCCCCCCCCCC)OC(=O)CCCCCCCCCCC [TG(46:3)]
Response: 297.1
